Source: PubChem BioAssay

- EXPERIMENT_SUMMARY: binders of probe aHhip on microarray, primary screen, stem cell growth factor project, biochemical, small-molecule microarray, fluorescence 635/667 (AID 1087);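 also: score merges spot fluorescence at 667nm with spot signal to noise ratio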
- COND: higher = more signal
I'd appreciate it if you could label each record using composite z-score and these ranges: bottom (below -0.1), middle (-0.1 to below 0.06), top (0.06 or more)

# bin label for C=C[C@@H](CO)NS(=O)(=O)c1ccc(Br)cc1
bottom

# bin label for [N-]=[N+]=Nc1ccccc1C[C@]1(C(=O)N2CCCCC2)N=C(c2ccc(OCCCO)cc2)O[C@H]1c1ccccc1
top

# bin label for [N-]=[N+]=NCc1ccccc1C[C@]1(C(=O)N2CCCCC2)COC(c2ccc(OCCCO)cc2)=N1
top

# bin label for COC(=O)[C@@]1(Cc2ccc(F)cc2)[C@H]2c3cc(C(=O)N(C)C)n(CCF)c3C[C@H]2CN1C(=O)c1ccccc1
middle

# bin label for C=C(COC)/C(=C/C[C@@H](OC(C)=O)c1cccc(OCCO)c1)c1cnc2ccccc2c1
bottom

# bin label for CCCCCN1CC=CC23O[C@@H]4/C=C\CCCOC(=O)C4[C@H]2C(=O)N(CCO)[C@@H]3C1=O (some centres undefined)
bottom

# bin label for [N-]=[N+]=Nc1ccccc1C[C@@]1(C(=O)NCc2ccccc2)N=C(c2ccc(OCCCO)cc2)O[C@@H]1c1ccccc1
middle

# bin label for C=C1C(=O)C=C2CN(C(=O)c3ccccc3)[C@@](Cc3ccc(F)cc3)(C(=O)OC)[C@@H]12
bottom

# bin label for [N-]=[N+]=NCc1ccccc1[C@H]1OC(c2ccc(OCCCO)cc2)=N[C@@]1(Cc1ccccc1N=[N+]=[N-])C(=O)O
top

# bin label for COc1ccc(CCNC(=O)[C@@]2(C)c3ccccc3C(=O)N(Cc3ccc(OC(F)(F)F)cc3)[C@H]2c2ccc(CO)cc2)cc1
bottom

# bin label for [N-]=[N+]=NCc1ccccc1[C@H]1OC(c2ccc(OCCCO)cc2)=N[C@@]1(CCS(=O)(=O)c1ccccc1)C(=O)NCCN1CCOCC1
middle

# bin label for C[C@@]1([C@@H](NS(=O)(=O)c2cccc3cccnc23)c2ccc(-c3ccccc3)cc2)C[C@H]1C1CCCCC1
middle

# bin label for CCOC(=O)C[C@H]1[C@H](OC(=O)c2ccccc2-c2ccccc2)[C@@H](NC(=O)CC(C)C)c2cc(OCCCO)ccc2N1C(=O)c1ccccc1
bottom

# bin label for O=C(NCC(F)(F)F)[C@@H]1c2ccccc2C(=O)N(Cc2cc(C(F)(F)F)cc(C(F)(F)F)c2)[C@H]1c1ccc(CO)cc1
middle

# bin label for CN1C(=O)C2C=CC(C(O)c3ccc(I)cc3)N(N(c3ccccc3)c3ccccc3)C2C1=O (centres undefined)
bottom

# bin label for CCCCC(=C=CC[C@@H](O)c1ccc(OCCO)cc1)CCO
top

# bin label for C=CCOC(=O)[C@H]1[C@@H]2C(=O)O[C@@H](c3ccccc3)[C@@H](c3ccccc3)N2[C@@H](c2ccc(OCCOC(=O)[C@H]3C[C@H]4C(=O)NCC(=O)N4[C@H]3c3ccc(O)cc3)cc2)[C@]12C(=O)Nc1ccccc12
top

# bin label for C=CCNC(=O)[C@H]1[C@@H]2C(=O)O[C@@H](c3ccccc3)[C@@H](c3ccccc3)N2[C@@H](c2ccc(OCCO)cc2)[C@]12C(=O)Nc1ccc(C#Cc3ccc(OC)cc3)cc12
top

# bin label for COCCOC(=O)N1C(=O)[C@@]2(c3cc(C#CCCO)ccc31)[C@H](C(=O)N1CCN(c3ncccn3)CC1)[C@H]1C(=O)O[C@H](c3ccccc3)[C@H](c3ccccc3)N1[C@@H]2c1ccc(OCCO)cc1
bottom

# bin label for COc1ccc(NN2C(C(O)c3ccc(F)cc3)C=CC3C(=O)N(C4CCCCC4)C(=O)C32)cc1 (centres undefined)
middle

# bin label for O=C1O[C@@H](c2ccccc2)[C@@H](c2ccccc2)N2[C@@H](c3ccccc3OCCO)[C@]3(C(=O)Nc4ccc(C#CC5(O)CCCCCC5)cc43)[C@@H](C(=O)N3CCCCCCC3)[C@H]12
top

# bin label for COCCCNC(=O)[C@]1(Cc2ccccc2CN=[N+]=[N-])N=C(c2ccc(OCCCO)cc2)O[C@@H]1c1ccccc1N=[N+]=[N-]
top

# bin label for COC(=O)[C@@]1(Cc2ccc(F)cc2)[C@H]2c3cc(C(=O)N(C)C)n(Cc4cccc5ccccc45)c3C[C@H]2CN1C(=O)c1ccccc1
top

# bin label for COC(=O)C(CC#Cc1ccc2c(c1)[C@]1(C(=O)N2)[C@H](C(=O)NC[C@H](O)c2ccccc2)[C@H]2C(=O)O[C@H](c3ccccc3)[C@H](c3ccccc3)N2[C@@H]1c1ccc(O)cc1)C(=O)OC
bottom

# bin label for CC(C)c1ccc(NN2C(C(O)C3CCCCC3)C=CC3C(=O)N(c4ccccc4)C(=O)C32)cc1 (centres undefined)
top

# bin label for CC(C)(C)OC(=O)CC[C@]1(C(=O)N2CCOCC2)COC(c2ccc(OCCCO)cc2)=N1
middle

# bin label for CC(C)(C)OC(=O)CC[C@]1(C(N)=O)N=C(c2ccc(OCCCO)cc2)O[C@H]1c1ccccc1N=[N+]=[N-]
top

# bin label for CCCC[C@@H](O)C1=C(C)Cn2c(=O)n(-c3ccccc3)c(=O)n2[C@H]1CO
middle
